In this section, each of the compounds is paired with its reported inhibition at 1 µM.
target.of.assay: S. aureus TrmD (Staphylococcus aureus, UniProt Q2FZ43)
Construct: made in house; host or cells: E. coli BL21
method.notes: nanoSAR direct-to-biology FP displacement screening of crude triazoles
Type: binding
measurement.setup: crude triazole at 1 μM, assuming full conversion; 500 nM TrmD, 10 nM tracer 4; read-out: % displaced tracer
Your answer should be a plain number; it is taken to be in %.

Record excerpt, results attached:
IN: Could you share which inhibition at 1 µM value was measured for COCC(COC)n1cc(-c2c[nH]c3nc[nH]c(=O)c23)nn1 ?
OUT: 24

IN: Could you share which inhibition at 1 µM value was measured for O=c1[nH]cnc2[nH]cc(-c3cn(Cc4cnns4)nn3)c12 ?
OUT: 73

IN: Could you share which inhibition at 1 µM value was measured for O=c1[nH]cnc2[nH]cc(-c3cn(C4(C(F)F)CC4)nn3)c12 ?
OUT: 18

IN: Could you share which inhibition at 1 µM value was measured for O=c1[nH]cnc2[nH]cc(-c3cn(CC(F)(F)F)nn3)c12 ?
OUT: 14

IN: Could you share which inhibition at 1 µM value was measured for N[C@H]1CC[C@H](n2cc(-c3c[nH]c4nc[nH]c(=O)c34)nn2)CC1 ?
OUT: 21

IN: Could you share which inhibition at 1 µM value was measured for O=c1[nH]cnc2[nH]cc(-c3cn(-c4cc(Cl)cc(Cl)c4)nn3)c12 ?
OUT: 23

Next:
IN: Could you share which inhibition at 1 µM value was measured for C[C@@H](C(=O)N1CCCC1)n1cc(-c2c[nH]c3nc[nH]c(=O)c23)nn1 ?
OUT: 20

IN: Could you share which inhibition at 1 µM value was measured for O=c1[nH]cnc2[nH]cc(-c3cn(Cc4cccs4)nn3)c12 ?
OUT: 85

----------
target.of.assay: S. aureus TrmD (Staphylococcus aureus)
Construct: made in house; host or cells: E. coli BL21
Sequence (Q2FZ43 1-245): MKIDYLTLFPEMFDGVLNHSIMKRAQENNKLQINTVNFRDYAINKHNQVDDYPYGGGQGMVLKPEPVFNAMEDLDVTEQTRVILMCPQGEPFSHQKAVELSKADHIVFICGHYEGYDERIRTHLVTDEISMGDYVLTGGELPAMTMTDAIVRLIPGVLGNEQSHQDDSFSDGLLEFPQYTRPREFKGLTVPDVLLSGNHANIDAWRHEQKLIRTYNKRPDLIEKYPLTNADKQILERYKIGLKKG
method.notes: nanoSAR direct-to-biology FP displacement screening of crude triazoles
Type: binding
measurement.setup: crude triazole at 1 μM, assuming full conversion; 500 nM TrmD, 10 nM tracer 4; read-out: % displaced tracer
reported.property: inhibition at 1 µM (%)
Your answer should be a plain number; it is taken to be in %.

IN: Could you share which inhibition at 1 µM value was measured for O=c1[nH]cnc2[nH]cc(-c3cn([C@@H]4CCOC4)nn3)c12 [Compound 03E01] ?
OUT: 27

IN: Could you share which inhibition at 1 µM value was measured for O=c1[nH]cnc2[nH]cc(-c3cn(CC4CNC4)nn3)c12 [Compound 01B06] ?
OUT: 62

IN: Could you share which inhibition at 1 µM value was measured for O=c1[nH]cnc2[nH]cc(-c3cn(Cc4ccc5c(c4)OCO5)nn3)c12 [Compound 03C03] ?
OUT: 70

IN: Could you share which inhibition at 1 µM value was measured for N#Cc1ccc(-n2cc(-c3c[nH]c4nc[nH]c(=O)c34)nn2)cc1 [Compound 02D05] ?
OUT: 1.83
